TARGET_ENTITY: Phosphatidylinositol 4,5-bisphosphate 3-kinase catalytic subunit alpha isoform (Homo sapiens)
Sequence (P42336 whole entry, canonical isoform): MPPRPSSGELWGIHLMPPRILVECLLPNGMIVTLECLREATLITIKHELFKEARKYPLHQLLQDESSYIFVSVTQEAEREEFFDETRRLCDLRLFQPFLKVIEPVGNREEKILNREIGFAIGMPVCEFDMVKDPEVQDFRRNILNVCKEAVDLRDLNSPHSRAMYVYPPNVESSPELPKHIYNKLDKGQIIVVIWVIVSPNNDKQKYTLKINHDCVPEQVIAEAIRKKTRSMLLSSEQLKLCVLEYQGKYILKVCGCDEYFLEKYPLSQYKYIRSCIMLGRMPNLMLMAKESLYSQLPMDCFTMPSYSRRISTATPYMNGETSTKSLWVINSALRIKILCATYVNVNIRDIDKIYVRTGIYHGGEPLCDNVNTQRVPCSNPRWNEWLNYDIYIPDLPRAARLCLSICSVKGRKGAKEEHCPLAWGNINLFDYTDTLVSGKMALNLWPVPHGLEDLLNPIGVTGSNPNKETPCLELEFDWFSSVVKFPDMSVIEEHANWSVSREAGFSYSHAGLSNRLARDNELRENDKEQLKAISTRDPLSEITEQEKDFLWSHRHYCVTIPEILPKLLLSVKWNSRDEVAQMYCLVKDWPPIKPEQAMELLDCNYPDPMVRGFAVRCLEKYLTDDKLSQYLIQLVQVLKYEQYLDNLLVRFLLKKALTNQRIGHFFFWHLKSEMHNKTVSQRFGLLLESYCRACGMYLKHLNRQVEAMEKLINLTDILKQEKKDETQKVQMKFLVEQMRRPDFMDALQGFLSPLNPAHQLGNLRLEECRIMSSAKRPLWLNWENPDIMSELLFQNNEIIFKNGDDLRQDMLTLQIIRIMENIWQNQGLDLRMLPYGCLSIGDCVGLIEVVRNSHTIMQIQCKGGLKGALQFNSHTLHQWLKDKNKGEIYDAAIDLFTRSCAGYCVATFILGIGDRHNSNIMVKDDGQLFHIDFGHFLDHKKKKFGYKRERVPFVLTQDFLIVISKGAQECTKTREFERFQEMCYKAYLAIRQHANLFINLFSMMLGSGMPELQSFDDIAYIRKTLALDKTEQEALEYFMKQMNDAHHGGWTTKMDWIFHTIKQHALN
PARAMETER_MEASURED: IC50 (µM)

Here is how some molecules turned out for IC50.
C#CCNc1nc(C)nc(-n2c(Nc3ccn[nH]3)nc3ccccc32)n1 : 4
Oc1cccc(Nc2nc3ccccc3n2-c2ncncn2)c1 : 2
Cc1nc(NCC#N)nc(-n2c(Nc3cccc(O)c3)nc3ccccc32)n1 : 0.032
CNc1nc(C)nc(-n2c(Nc3cc[nH]n3)nc3ccccc32)n1 : 2.2
Cc1nc(N)nc(-n2c(Nc3ccn[nH]3)nc3ccccc32)n1 : 0.8

P. Oc1cccc(Nc2nc3ccccc3n2-c2ncnc(Nc3ccccc3)n2)c1
Q. Cc1nccc(-n2c(Nc3cccc(O)c3)nc3ccccc32)n1
Returns: the argument ( P or Q ) having the larger IC50. Your answer should be the label of the entry you select.
P
(P: 0.72 µM, Q: 0.37 µM)

a. Nc1cc(-n2c(Nc3cccc(O)c3)nc3ccccc32)ncn1
b. COc1ncnc(-n2c(Nc3cccc(O)c3)nc3ccccc32)n1
Returns: the argument ( a or b ) having the larger IC50. Your answer should be the label of the entry you select.
b

A. Oc1cccc(Nc2nc3ccccc3n2-c2ncnc(NCC(F)(F)F)n2)c1
B. Cc1nc(N)nc(-n2c(Nc3cccc(O)c3)nc3ccccc32)n1
Please indicate which entry, A or B , has the lower recorded IC50 value. Your answer should be the label of the entry you select.
B

----------
TARGET_ENTITY: Phosphatidylinositol 4,5-bisphosphate 3-kinase catalytic subunit gamma isoform (Homo sapiens, UniProt P48736)
Sequence (P48736 whole entry, canonical isoform): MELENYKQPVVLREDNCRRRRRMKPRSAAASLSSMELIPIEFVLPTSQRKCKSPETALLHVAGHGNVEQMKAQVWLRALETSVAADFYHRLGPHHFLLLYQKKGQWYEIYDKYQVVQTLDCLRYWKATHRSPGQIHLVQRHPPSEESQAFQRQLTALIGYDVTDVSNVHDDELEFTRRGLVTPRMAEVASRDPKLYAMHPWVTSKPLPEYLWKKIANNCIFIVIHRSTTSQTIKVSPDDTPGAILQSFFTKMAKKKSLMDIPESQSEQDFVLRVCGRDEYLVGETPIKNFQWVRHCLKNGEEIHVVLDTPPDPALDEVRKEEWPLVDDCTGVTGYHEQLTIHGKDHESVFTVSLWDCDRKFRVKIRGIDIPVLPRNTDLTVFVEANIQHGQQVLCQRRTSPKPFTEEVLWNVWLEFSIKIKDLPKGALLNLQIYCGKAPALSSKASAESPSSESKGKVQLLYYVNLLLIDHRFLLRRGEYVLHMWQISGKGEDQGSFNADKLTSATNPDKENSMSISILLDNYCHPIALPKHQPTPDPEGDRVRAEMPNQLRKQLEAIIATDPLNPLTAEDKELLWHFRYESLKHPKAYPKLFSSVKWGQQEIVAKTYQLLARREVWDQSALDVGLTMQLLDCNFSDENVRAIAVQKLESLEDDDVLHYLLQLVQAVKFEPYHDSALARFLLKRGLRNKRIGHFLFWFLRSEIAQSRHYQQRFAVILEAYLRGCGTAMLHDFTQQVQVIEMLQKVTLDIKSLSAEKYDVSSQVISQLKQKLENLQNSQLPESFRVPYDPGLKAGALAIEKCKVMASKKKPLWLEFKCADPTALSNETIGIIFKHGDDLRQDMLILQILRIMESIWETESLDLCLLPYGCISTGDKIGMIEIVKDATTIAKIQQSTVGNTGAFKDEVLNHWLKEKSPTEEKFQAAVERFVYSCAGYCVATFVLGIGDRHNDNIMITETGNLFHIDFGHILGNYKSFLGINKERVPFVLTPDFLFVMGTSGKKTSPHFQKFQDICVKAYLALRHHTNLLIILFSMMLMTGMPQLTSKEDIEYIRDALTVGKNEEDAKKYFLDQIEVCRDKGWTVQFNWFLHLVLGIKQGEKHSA
pIC50: −log10 of the molar value.
PARAMETER_MEASURED: pIC50

Cc1nc(N)nc(-n2c(Nc3ccccc3)nc3ccccc32)n1 : 6.33
Cc1nc(N)nc(-n2c(Nc3cc(O)cc(O)c3)nc3ccccc32)n1 : 8.30
Cc1nc(N)nc(-n2c(Nc3ccn(C(F)F)n3)nc3ccccc32)n1 : 6.07
Cc1nc(NCC#N)nc(-n2c(Nc3ccn[nH]3)nc3ccccc32)n1 : 5.44

P. CC(=O)Nc1ccc(Nc2nc3ccccc3n2-c2nc(C)nc(N)n2)cc1
Q. Cc1nc(N)nc(-n2c(Nc3ccnn3C)nc3ccccc32)n1
Returns: the argument ( P or Q ) having the larger pIC50. Your answer should be the label of the entry you select.
P

----------
Quick note: these are pIC50 numbers for system: Serine/threonine-protein kinase mTOR (Homo sapiens, UniProt P42345)
pIC50: −log10 of the molar value.

Cc1nc(N)nc(-n2c(Nc3ccccc3)nc3ccccc32)n1 : < 4.60

Which measured pIC50 value corresponds to CCCc1nc(N)nc(-n2c(Nc3cccc(O)c3)nc3ccccc32)n1 ?
< 4.60

Another compound to check: Oc1cccc(Nc2nc3ccccc3n2-c2ncnc(NCC(F)(F)F)n2)c1
< 4.60

----------
pIC50: −log10 of the molar value.
Quick note: these are pIC50 numbers for system: Serine/threonine-protein kinase mTOR (Homo sapiens, UniProt P42345)
PARAMETER_MEASURED: pIC50

a. Cc1nc(N)nc(-n2c(Nc3cc(O)cc(O)c3)nc3ccccc32)n1
b. Cc1nc(N)nc(-n2c(Nc3nc[nH]n3)nc3ccccc32)n1
Returns: the argument ( a or b ) having the larger pIC50. Your answer should be the label of the entry you select.
a
(a: 9.70, b: 4.48)

Data origin: ChEMBL document CHEMBL1759974
